assay: Recovery of ATRA and conjugate in plasma and lung tissue after intratracheal instillation in male rats; format: in vivo, Sprague Dawley Rats; conditions: male, Sprague Dawley, other: intratracheal instillation, 354 μg, rat plasma, one-hour timepoint, LC-MS-MS, read-out: plasma retinoic acid (ATRA) concentration
Measurement label: concentration at 1 h

Given item CC1=C(/C=C/C(C)=C/C=C/C(C)=C/C(=O)O)C(C)(C)CCC1 [ATRA, all trans retinoic acid, reference compound] , the value recorded as its concentration at 1 h is ~145 ng/mL

Cited source for all entries: patent US20030161791A1
